// provenance: patent US20260184663A1

Tested on: A431 (epidermoid carcinoma)
Assay: Antiproliferative activity (CCK-8 cell viability), A431
Type: cell-based
Conditions: Homo sapiens, A-431, Compound concentration: 10 μM, 72 h, read-out: Antiproliferative activity in cancerous cells, A431 (inhibition of cell growth)
Test Readout: inhibition at 10 µM

Worked examples, 4 compounds total:
CC1=C(CC(=O)O)c2cc(F)ccc2/C1=C/c1ccc(Oc2ccc(F)cc2Cl)cc1 [E25]    ≥ 50%
COc1ccc(Oc2ccc(/C=C3/C(C)=C(CC(=O)O)c4cc(F)ccc43)cn2)cc1 [C35]    < 30%
CC1=C(CC(=O)O)c2cc(F)ccc2/C1=C\c1cccc(-c2ccc(C(F)(F)F)cc2)c1 [D1]    ≥ 50%
CCc1ccc2c(c1)C(CC(=O)O)=C(C)/C2=C/c1ccc(Oc2ccc(F)cc2)cc1 [C5]    ≥ 50%

Note: attention shifts to another entry.
input: Looking for the measured inhibition at 10 µM of CC1=C(CC(=O)O)c2cc(F)ccc2/C1=C/c1cccc(Oc2cccc(C(F)(F)F)c2)c1 [E16] , can you help?
output: < 30%
